target: full-length monomeric gp120 (clade B, BaL strain) (HIV-1 clade B, strain BaL, UniProt Q2MKA8, strain); assay: flow cytometry on cells; details: one partner purified

- binder: "DH677.3 mAb (antibody, V domains shown) VH: QVQLVQSGAEVQKPGASVKVSCKASGYTFASYDINWVRQATGQGLEWMGWMNPKTGNTGYAQKFQGRVTLTRNTSISTAYMELTSLRSEDTAVYYCATYRIIAAVGYRYFQYWGQGTLVTVSS VL: DIQLTQSPSSLSASVGDSVTITCRASQGFGNYLAWYQQRPGKVPEVLIYAATTLQSGVPSRFSGSGSGTDFTLTISSLQPEDVATYYCQKYNSAPFTFGQGTRLEIK"
  binding result: "binds"
- binder: "N12-i3 mAb (antibody, V domains shown) VH: QVQLVQSGAEVKKPGSSVRVSCKASGGSFSRYTVNWVRQAPGQGLEWMARFIPIFNMPDYAPKFQGRITITADESTSTAYLELSSLTSDDTAVYYCASRQHHEYFQEWGQGTLVTVSS VL: EIVLTQSPGTLSMSPGERATLSCRASRTVSSSNLAWYQQKPGQAPRLLIYDVSSRATGIPDRFSGRGSGTDFTLTISRLEPEDFAVYYCQQYGTSPLTFGGGTKVEIK"
  binding result: "binds"
- binder: "A32 mAb (antibody, V domains shown) VH: QVQLQESGPGLVKPSQTLSLSCTVSGGSSSSGAHYWSWIRQYPGKGLEWIGYIHYSGNTYYNPSLKSRITISQHTSENQFSLKLNSVTVADTAVYYCARGTRLRTLRNAFDIWGQGTMVTVSS VL: VLTQPPSASGSPGQSVTISCTGTSSDVGGYNYVSWYQHHPGKAPKLIISEVNNRPSGVPDRFSGSKSGNTASLTVSGLQAEDEAEYYCSSYTDIHNFVFGGGTKLTVL"
  binding result: "binds"
